targetSystem: IL-1β (Homo sapiens)
Sequence (P01584 117-269): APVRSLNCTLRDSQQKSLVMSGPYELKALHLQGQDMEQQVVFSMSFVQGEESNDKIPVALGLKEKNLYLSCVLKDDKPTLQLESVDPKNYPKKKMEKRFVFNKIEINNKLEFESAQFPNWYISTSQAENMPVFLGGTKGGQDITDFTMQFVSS
testName: TR-FRET IL-1β/hIL-1R1 receptor displacement assay
Type: biochemical
measurementSetup: read-out: TR-FRET IL-1β IC50
Overview of recorded IC50 for various compounds

Some solved cases for reference:
O=C1Nc2ccccc2C1(O)c1cc(Cl)ccc1O (stereo not drawn)
> 500 µM
Cc1ccc2c(c1)NC(=O)C2(O)c1cc(-c2ccc(C(=O)O)cc2)ccc1O (stereo not drawn)
178 µM
O=C(O)c1ccccc1-c1ccc(O)c(C2(O)C(=O)Nc3cc(Cl)ccc32)c1 (stereo not drawn)
126 µM
COc1ccc(Cl)cc1C1(O)C(=O)Nc2cc(C(F)(F)F)ccc21 (stereo not drawn)
> 530 µM
Cc1ccc2c(c1)NC(=O)C2(O)c1cc(Cl)ccc1O (stereo not drawn)
> 200 µM

Then there is this compound:
Note IC50 for the compound shown: Cc1ccc2c(c1)NC(=O)C2(O)c1cc(C(C)C)ccc1O (stereo not drawn) > 400 µM
